Listing of entries alongside the reported Phototoxicity frequency.
System: female ICR mouse
procedure_summary: Test on phototoxicity (ear erythema after UV exposure)
Type: in vivo
measurement_parameters: 48 hours after exposure; 40 mg/kg/10 mL intravenous, UV 320 to 400 nm for 4 hours

// solved cases for Phototoxicity frequency follow
> print(dat)
                                   compound      study.system            assay.readout  measured
1  NC1CCN(c2nc3c(cc2F)c(=O)c(C(=O)O)cn3-c2ccc(F)cc2F)C1 (racemic) [Tosufloxacin]  female ICR mouse  Phototoxicity frequency       1/5
2  Nc1nc(-n2cc(C(=O)O)c(=O)c3cc(F)c(N4CC(O)C4)c(Cl)c32)c(F)cc1F.OC1CNC1 [Comparative compound 1]  female ICR mouse  Phototoxicity frequency       0/4
3  Cc1c(N2CC(O)C2)c(F)cc2c(=O)c(C(=O)O)cn(-c3nc(N)c(F)cc3F)c12 [Compound 1]  female ICR mouse  Phototoxicity frequency       0/4

Phototoxicity frequency measured on Nc1nc(-n2cc(C(=O)O)c(=O)c3cc(F)c(N4CC(O)C4)c(F)c32)c(F)cc1F [Comparative compound 2] = 0/4

###

Measured Phototoxicity average score (ears), listed per entry.
Tested on: female ICR mouse
procedure_summary: Test on phototoxicity (ear erythema after UV exposure)
Assay type: in vivo
measurement_parameters: 24 hours after exposure; 40 mg/kg/10 mL intravenous, UV 320 to 400 nm for 4 hours; 0 point no abnormality to 3 points heavy erythema or edema

Reference set, count: 3
> print(dat)
                                   compound                       assay.readout  measured
1  NC1CCN(c2nc3c(cc2F)c(=O)c(C(=O)O)cn3-c2ccc(F)cc2F)C1 (racemic)  Phototoxicity average score (ears)       0.8
2  Nc1nc(-n2cc(C(=O)O)c(=O)c3cc(F)c(N4CC(O)C4)c(F)c32)c(F)cc1F  Phototoxicity average score (ears)         0
3  Cc1c(N2CC(O)C2)c(F)cc2c(=O)c(C(=O)O)cn(-c3nc(N)c(F)cc3F)c12  Phototoxicity average score (ears)         0

Continue with the compound presented below.
Looking up Nc1nc(-n2cc(C(=O)O)c(=O)c3cc(F)c(N4CC(O)C4)c(Cl)c32)c(F)cc1F.OC1CNC1 , I found its Phototoxicity average score (ears) recorded as 0

###

System: female ICR mouse
procedure_summary: Test on phototoxicity (ear erythema after UV exposure)
Assay type: in vivo
measurement_parameters: 0 hour after exposure; 40 mg/kg/10 mL intravenous, UV 320 to 400 nm for 4 hours
assay_readout: Phototoxicity frequency

> print(dat)
                                   compound  measured
1  NC1CCN(c2nc3c(cc2F)c(=O)c(C(=O)O)cn3-c2ccc(F)cc2F)C1 (racemic)       4/5
2  Nc1nc(-n2cc(C(=O)O)c(=O)c3cc(F)c(N4CC(O)C4)c(Cl)c32)c(F)cc1F.OC1CNC1       0/4
3  Nc1nc(-n2cc(C(=O)O)c(=O)c3cc(F)c(N4CC(O)C4)c(F)c32)c(F)cc1F       0/4

The recorded Phototoxicity frequency for Cc1c(N2CC(O)C2)c(F)cc2c(=O)c(C(=O)O)cn(-c3nc(N)c(F)cc3F)c12 is 0/4

###

Test system: female ICR mouse
procedure_summary: Test on phototoxicity (ear erythema after UV exposure)
Type: in vivo
measurement_parameters: 24 hours after exposure; 40 mg/kg/10 mL intravenous, UV 320 to 400 nm for 4 hours
Experimental: (2) Test on Phototoxicity The phototoxicity was tested in accordance with the following method. After intravenous administration (40 mg/kg/10 mL) of each of the test compounds to a female ICR mouse (5-6 week old), the mouse was exposed to ultraviolet rays (320 to 400 nm, 1.8 mW/cm^2/sec) for 4 hours. no abnormality (0 point); slight erythema (1 point); medium erythema (2 points); and heavy erythema or edema (3 points)
assay_readout: Phototoxicity frequency

Check out these entries, answers already filled in.
> print(dat)
                                   compound  measured
1  Nc1nc(-n2cc(C(=O)O)c(=O)c3cc(F)c(N4CC(O)C4)c(F)c32)c(F)cc1F       0/4
2  NC1CCN(c2nc3c(cc2F)c(=O)c(C(=O)O)cn3-c2ccc(F)cc2F)C1 (racemic)       4/5
3  Nc1nc(-n2cc(C(=O)O)c(=O)c3cc(F)c(N4CC(O)C4)c(Cl)c32)c(F)cc1F.OC1CNC1       0/4

// switching to the query compound
# compound Cc1c(N2CC(O)C2)c(F)cc2c(=O)c(C(=O)O)cn(-c3nc(N)c(F)cc3F)c12 ; its Phototoxicity frequency = 0/4

###

Test system: female ICR mouse
procedure_summary: Test on phototoxicity (ear erythema after UV exposure)
Assay type: in vivo
measurement_parameters: 0 hour after exposure; 40 mg/kg/10 mL intravenous, UV 320 to 400 nm for 4 hours; 0 point no abnormality to 3 points heavy erythema or edema
assay_readout: Phototoxicity average score (ears)
// no unit string in output, number only

> print(dat)
                                   compound  measured
1  Nc1nc(-n2cc(C(=O)O)c(=O)c3cc(F)c(N4CC(O)C4)c(F)c32)c(F)cc1F [Comparative compound 2]         0
2  Nc1nc(-n2cc(C(=O)O)c(=O)c3cc(F)c(N4CC(O)C4)c(Cl)c32)c(F)cc1F.OC1CNC1 [Comparative compound 1]         0
3  Cc1c(N2CC(O)C2)c(F)cc2c(=O)c(C(=O)O)cn(-c3nc(N)c(F)cc3F)c12 [Compound 1]         0

Next compound, Phototoxicity average score (ears) to be filled in.
The value of Phototoxicity average score (ears) measured for the compound NC1CCN(c2nc3c(cc2F)c(=O)c(C(=O)O)cn3-c2ccc(F)cc2F)C1 (racemic) [Tosufloxacin] turned out to be 1.8

###

Tested on: female ICR mouse
procedure_summary: Test on phototoxicity (ear erythema after UV exposure)
Assay type: in vivo
measurement_parameters: 48 hours after exposure; 40 mg/kg/10 mL intravenous, UV 320 to 400 nm for 4 hours; 0 point no abnormality to 3 points heavy erythema or edema
assay_readout: Phototoxicity average score (ears)
Would you mind answering with just the numeric figure?

> print(dat)
                                   compound                       assay.readout  measured
1  Cc1c(N2CC(O)C2)c(F)cc2c(=O)c(C(=O)O)cn(-c3nc(N)c(F)cc3F)c12  Phototoxicity average score (ears)         0
2  Nc1nc(-n2cc(C(=O)O)c(=O)c3cc(F)c(N4CC(O)C4)c(F)c32)c(F)cc1F  Phototoxicity average score (ears)         0
3  NC1CCN(c2nc3c(cc2F)c(=O)c(C(=O)O)cn3-c2ccc(F)cc2F)C1 (racemic)  Phototoxicity average score (ears)       0.2

// moving on: another record for Phototoxicity average score (ears)
Noted Phototoxicity average score (ears) for Nc1nc(-n2cc(C(=O)O)c(=O)c3cc(F)c(N4CC(O)C4)c(Cl)c32)c(F)cc1F.OC1CNC1 , tested on female ICR mouse: 0
